ASSAY_SYSTEM: the molecule itself
ASSAY_OVERVIEW: cross-linking; Ca2+-loaded proteins: 0.02% glutaric aldehyde, 16 h, 20 °C, protein 1 mg/mL, 20 mM Tricine-KOH pH 7.4, 50 mM KCl, 1 mM DTT, 1 mM CaCl2; SDS-PAGE, Coomassie, densitometry; self-association

{"PROTEIN": "human recoverin mutant W156A (natural protein, UniProt P35243 1-200, looked up, myristoylated (fraction of non-myristoylated forms did not exceed 16%), recoverin, human, UniProt P35243, C-terminal 'gray' cluster mutant; Parent construct as m1; source: E. coli, expressed and purified similarly to the rWT protein (phenyl-Sepharose, Toyopearl SuperQ-650M)) MGNSKSGALSKEILEELQLNTKFSEEELCSWYQSFLKDCPTGRITQQQFQSIYAKFFPDTDPKAYAQHVFRSFDSNLDGTLDFKEYVIALHMTTAGKTNQKLEWAFSLYDVDGNGTISKNEVLEIVMAIFKMITPEDVKLLPDDENTPEKRAEKIAKYFGKNDDDKLTEKEFIEGTLANKEILRLIQFEPQKVKEKMKNA", "Trimer 70–100 kDa, % (%)": 24.8}
{"PROTEIN": "human recoverin mutant F49A (natural protein, UniProt P35243 1-200, looked up, myristoylated (fraction of non-myristoylated forms did not exceed 16%), recoverin, human, UniProt P35243, N-terminal 'gray' cluster mutant; Parent construct as m1; source: E. coli, expressed and purified similarly to the rWT protein (phenyl-Sepharose, Toyopearl SuperQ-650M)) MGNSKSGALSKEILEELQLNTKFSEEELCSWYQSFLKDCPTGRITQQQAQSIYAKFFPDTDPKAYAQHVFRSFDSNLDGTLDFKEYVIALHMTTAGKTNQKLEWAFSLYDVDGNGTISKNEVLEIVMAIFKMITPEDVKLLPDDENTPEKRAEKIWKYFGKNDDDKLTEKEFIEGTLANKEILRLIQFEPQKVKEKMKNA", "Trimer 70–100 kDa, % (%)": 22.8}
{"PROTEIN": "human recoverin mutant V122A (natural protein, UniProt P35243 1-200, looked up, myristoylated (fraction of non-myristoylated forms did not exceed 16%), recoverin, human, UniProt P35243, C-terminal 'gray' cluster mutant; Parent construct as m1; source: E. coli, expressed and purified similarly to the rWT protein (phenyl-Sepharose, Toyopearl SuperQ-650M)) MGNSKSGALSKEILEELQLNTKFSEEELCSWYQSFLKDCPTGRITQQQFQSIYAKFFPDTDPKAYAQHVFRSFDSNLDGTLDFKEYVIALHMTTAGKTNQKLEWAFSLYDVDGNGTISKNEALEIVMAIFKMITPEDVKLLPDDENTPEKRAEKIWKYFGKNDDDKLTEKEFIEGTLANKEILRLIQFEPQKVKEKMKNA", "Trimer 70–100 kDa, % (%)": 30.3}
